assay: Drug solubility in receptor solutions and excipient solutions; assay type: physicochemical; settings: dextrose solutions adjusted to pH 4 with tartaric acid; read-out: doxazosin solubility in all the dextrose solutions
MEASURE NAME: solubility

Which solubility reading was recorded for the compound COc1cc2nc(N3CCN(C(=O)C4COc5ccccc5O4)CC3)nc(N)c2cc1OC (stereo not shown) ?
~10000 µg/mL
